assay_info: Solubility in aqueous solutions (Example 10)
Assay type: physicochemical
details: pH 6.8 Na (sodium buffer), pH 6.8, aqueous buffer, thermodynamic from solid, pH 6.8 Na; read-out: Compound 1 Solubility
Protocol: Crystalline and amorphous Compound 1/polymer formulation solubility was determined in different aqueous media (Tables 8A and 8B). As mentioned earlier, the high solubility of the Compound 1 sodium salt most probably resulted from the conversion of the Compound 1 to its ionized form. In relation to crystalline Compound 1 (as-received sample), formulations containing amorphous form (Tables 11A and 11B) were more soluble than crystalline form under all studied conditions.
Counter-ions that a name gives are not always drawn.

# compound, solubility
rows = [
    ("Cc1c(Cc2ccc3ccccc3n2)c2cc(F)ccc2n1CC(=O)O [Compound 1 sodium salt]", "2490 µg/mL"),
]

====

assay_info: Solubility screening in solvents (Example 2)
Format: physicochemical
details: organic solvent or mixture, thermodynamic from solid; DMSO/Ethanol (50/50 v/v); 12 h room temperature; read-out: Compound 1 Solubility

# mol, solubility at 12 h
measured = [
    ("Cc1c(Cc2ccc3ccccc3n2)c2cc(F)ccc2n1CC(=O)O", "500 to 1000 µg/mL"),
]

====

assay_info: Solubility screening in solvents (Example 2)
Type: physicochemical
details: aqueous with cosolvent or surfactant or cyclodextrin, thermodynamic from solid; DMSO/H2O (75/25 v/v); 12 h room temperature; read-out: Compound 1 Solubility
observation_type: solubility at 12 h

# mol, observation_type, result
measured = [
    ("Cc1c(Cc2ccc3ccccc3n2)c2cc(F)ccc2n1CC(=O)O", "solubility at 12 h", "2000 to 2500 µg/mL"),
]

====

assay_info: Solubility screening in solvents (Example 2)
Assay type: physicochemical
details: aqueous with cosolvent or surfactant or cyclodextrin, thermodynamic from solid; DMSO/H2O (50/50 v/v); 12 h room temperature; read-out: Compound 1 Solubility

# mol, solubility at 12 h
measured = [
    ("Cc1c(Cc2ccc3ccccc3n2)c2cc(F)ccc2n1CC(=O)O", "< 500 µg/mL"),
]
